Procedure Text: Plasma stability, human plasma
Assay type: in vitro ADME
Protocol Conditions: 37° C., sampled up to 240 min, read-out: Plasmastability human pl. T1/2
Numbered stars: 1 amine (or outer) side, 2 acyl side, 3 side chain; on linkers, the order of the positions; unused ones are H or OH. Bridge positions count the residues as written; N and C are the ends. Square brackets hold non-standard residues; d marks the D form. Peptide text beside a SMILES is read from it. Abu(3S-NH2) = C[C@H](N)[C@H](N)C(=O)O; Hpla = O=C(O)[C@@H](O)Cc1ccc(O)cc1; X1 = NCC[C@H](O[*:1])C(=O)[*:2]
Measured Quantity: half-life at 10 μM (min)
Report only the number, with the unit min understood.

C[C@@H]1NC(=O)[C@H](Cc2c[nH]cn2)NC(=O)[C@H](Cc2ccc(O)cc2)NC(=O)[C@@H]2CCCN2C(=O)[C@H]2CCCN2C(=O)[C@H](CCCCN)NC(=O)[C@H](CCC(N)=O)NC(=O)[C@H](Cc2ccc(O)cc2)OC(=O)[C@@H]2CSSC[C@H](NC1=O)C(=O)N[C@@H](CO)C(=O)N[C@@H](C)C(=O)N1CCC[C@@H]1C(=O)N[C@@H]([C@H](C)N)C(=O)N[C@@H](CCCNC(=N)N)C(=O)N[C@@H](Cc1ccc(O)cc1)C(=O)N2 [Example 3] (cyclo(YHACSA[dP][Abu(3S-NH2)]RYC[Hpla]QK[dP]P); disulfide 4-11)	81

Please find the next compound below.
If you can, please state the reported half-life at 10 μM value of C[C@@H]1NC(=O)[C@H](Cc2c[nH]cn2)NC(=O)[C@H](Cc2ccc(O)cc2)NC(=O)[C@@H]2CCCN2C(=O)[C@H]2CCCN2C(=O)[C@H](CCN)OC(=O)[C@@H](CCC(N)=O)NC(=O)[C@H](Cc2ccc(O)cc2)NC(=O)[C@@H]2CSSC[C@H](NC1=O)C(=O)N[C@@H](CCCNC(=N)N)C(=O)N[C@@H](C)C(=O)N1CCC[C@@H]1C(=O)N[C@@H]([C@H](C)N)C(=O)N[C@@H](CCCNC(=N)N)C(=O)N[C@@H](Cc1ccc(O)cc1)C(=O)N2 [Example 10] (cyclo(YHACRA[dP][Abu(3S-NH2)]RYCY[dQ][X1][dP]P); disulfide 4-11) .
5.1

----------
Test system: human red blood cells (hRBC)
Format: cell-based
Protocol Conditions: red cells of human, 1 h
Bridge positions count the residues as written; N and C are the ends. Square brackets hold non-standard residues; d marks the D form. Peptide text beside a SMILES is read from it. Abu(3S-NH2) = C[C@H](N)[C@H](N)C(=O)O; Hpla = O=C(O)[C@@H](O)Cc1ccc(O)cc1
Measured Quantity: Hemolysis at 100 μM (%)
Report only the number, with the unit % understood.

Value wanted: Hemolysis at 100 μM (human red blood cells (hRBC)) of entry C[C@@H]1NC(=O)[C@H](Cc2c[nH]cn2)NC(=O)[C@H](Cc2ccc(O)cc2)OC(=O)[C@@H]2CCCN2C(=O)[C@H]2CCCN2C(=O)[C@H](CCCCN)NC(=O)[C@H](CCC(N)=O)NC(=O)[C@H](Cc2ccc(O)cc2)NC(=O)[C@@H]2CSSC[C@H](NC1=O)C(=O)N[C@@H](CO)C(=O)N[C@@H](C)C(=O)N1CCC[C@@H]1C(=O)N[C@@H]([C@H](C)N)C(=O)N[C@@H](CCCNC(=N)N)C(=O)N[C@@H](Cc1ccc(O)cc1)C(=O)N2 [Example 5] (cyclo([Hpla]HACSA[dP][Abu(3S-NH2)]RYCYQK[dP]P); disulfide 4-11)
1.5
